Experiment: Ex vivo biodistribution in normal mice
Design: species or system ddY mice
Details: i.v., 10 min after injection, mean (SD), 5 animals
Description: To evaluate brain uptake of ^99mTc-Ham complexes, biodistribution experiments of ^99mTc-Ham complexes were performed in normal mice. […] The radioactivity in the brains remained low until 60 min postinjection. […] A saline solution (100 μL) of ^99mTc-Ham complexes (20 kBq) containing EtOH (10 μL) was injected directly into the tail vein of ddY mice (male, 5 weeks old). […] The organs of interest were removed and weighed, and radioactivity was measured using a γ counter (PerkinElmer). […]
Items are presented alongside their recorded Biodistribution of radioactivity, Stomach.

compound	result-value
CN(C)c1ccc(C2=N[O][99Tc-]3(=[O])([NH]2)[NH2+]C(c2ccc4nc(-c5ccc(N(C)C)cc5)sc4c2)=N[O]3)cc1 [[^99mTc]BT1B]	3.76 (0.82) % injected dose per organ

What does the record list as Biodistribution of radioactivity, Stomach for CN(C)c1ccc(/C=C/c2ccc(C3=N[O][99Tc-]4(=[O])([NH]3)[NH2+]C(c3ccc(/C=C/c5ccc(N(C)C)cc5)cc3)=N[O]4)cc2)cc1 (single isomer, unassigned) [[^99mTc]SB2A] ?
8.78 (1.32) % injected dose per organ

Please report the recorded Biodistribution of radioactivity, Stomach for CN(C)c1ccc(/C=C/c2ccc(C3=N[O][99Tc-]4(=[O])([NH]C(c5ccc(N(C)C)cc5)=N[O]4)[NH2+]3)cc2)cc1 (single isomer, unassigned) [[^99mTc]SB1A] .
4.54 (0.97) % injected dose per organ

Query: Biodistribution of radioactivity, Stomach; subject: CN(C)c1ccc(-c2nc3ccc(C4=N[O][99Tc-]5(=[O])([NH]4)[NH2+]C(c4ccc6nc(-c7ccc(N(C)C)cc7)sc6c4)=N[O]5)cc3s2)cc1 [[^99mTc]BT2B]
3.77 (0.56) % injected dose per organ

====

Test: Ex vivo biodistribution in normal mice
Parameters: species or system ddY mice
Conditions: i.v., 2 min after injection, mean (SD), 5 animals
recorded-metric: Biodistribution of radioactivity, Liver

For orientation, consider the following solved cases.
molecule	recorded-metric	result-value
CN(C)c1ccc(-c2nc3ccc(C4=N[O][99Tc-]5(=[O])([NH]4)[NH2+]C(c4ccc6nc(-c7ccc(N(C)C)cc7)sc6c4)=N[O]5)cc3s2)cc1 [[^99mTc]BT2B]	Biodistribution of radioactivity, Liver	23.21 (5.72) % injected dose per gram
CN(C)c1ccc(/C=C/c2ccc(C3=N[O][99Tc-]4(=[O])([NH]C(c5ccc(N(C)C)cc5)=N[O]4)[NH2+]3)cc2)cc1 (single isomer, unassigned) [[^99mTc]SB1A]	Biodistribution of radioactivity, Liver	28.55 (4.86) % injected dose per gram
CN(C)c1ccc(C2=N[O][99Tc-]3(=[O])([NH]2)[NH2+]C(c2ccc4nc(-c5ccc(N(C)C)cc5)sc4c2)=N[O]3)cc1 [[^99mTc]BT1B]	Biodistribution of radioactivity, Liver	19.90 (4.06) % injected dose per gram

Sample CN(C)c1ccc(/C=C/c2ccc(C3=N[O][99Tc-]4(=[O])([NH]3)[NH2+]C(c3ccc(/C=C/c5ccc(N(C)C)cc5)cc3)=N[O]4)cc2)cc1 (single isomer, unassigned) [[^99mTc]SB2A] — what was its Biodistribution of radioactivity, Liver?
25.52 (1.67) % injected dose per gram

Reference source: paper PMC4867616
